Tested on: OVCAR-5 ovarian
ASSAY PROCEDURE: NCI-60 one-dose screen, 48 h
MEASUREMENT SETUP: 10 µM unless noted
About 83,000 compounds went through this panel and 20% of them were active in at least one assay; those are over-represented in the sample as a whole. Active and inactive are the calls of the source. How the source made its calls: active means growth percent below 10; inactive means the rest.
Answer with one of the outcomes given here: active, inactive

Q. Record request — test call for CCCCN(CCCC)CC(O)CN(CC)CC (stereo unspecified)
A. inactive

Q. Record request — test call for CC(=O)Nc1nc(C)c(C(=O)N/N=C/c2cccs2)s1
A. inactive

Q. Record request — test call for COc1cc(-c2nn(-c3ccc(NC(=O)Nc4ccc(Cl)c(C(F)(F)F)c4)cc3)cc2-c2ccncc2)ccc1Cl
A. inactive

Q. Record request — test call for CC(=O)Nc1ccc(C(=O)/C=C/c2ccc(N(C)C)cc2)cc1
A. inactive

Q. Record request — test call for CC1CCCCC[N+]12CCCC2 (stereo unspecified)
A. inactive

Q. Record request — test call for Cc1ccc2c(c1)C(=O)CCS2
A. inactive

Q. Record request — test call for CCCCCCNC(=O)Oc1ccc(/C(=C(/C)Cc2ccc(OC)cc2)c2ccc(OCCN(C)C)cc2)cc1
A. inactive

Q. Record request — test call for CCCC(C)c1cc(Cc2cc(Cl)cc(Cl)c2O)c(O)c(Cc2cc(Cl)cc(Cl)c2O)c1 (stereo unspecified)
A. inactive

Q. Record request — test call for CCOC1=C(Cl)C(=O)C(OCC)=C(Cl)C1=O
A. inactive

Q. Record request — test call for COC(c1ccccc1)C(Br)C(=O)c1ccccc1 (stereo unspecified)
A. inactive

Q. Record request — test call for O=C(Nc1cccc(Cn2c(=O)[nH]c3ccc(Oc4ncccn4)cc3c2=O)c1)c1ccc(Cl)cc1
A. inactive

Q. Record request — test call for NCCCOc1cc(Cl)ccc1NC(=O)c1cc2ccccc2cc1OCCCN
A. active

Q. Record request — test call for COC(=O)c1ccc2[nH]c(O)c(C(=Nc3ccc(N(C)C(=O)CN4CCN(C)CC4)cc3)c3cccc(OC)c3)c2c1
A. inactive

Q. Record request — test call for COc1cc(-c2nn(-c3ccc(NC(=O)c4ccc(Cl)c(Cl)c4)cc3)cc2-c2ccncc2)ccc1Cl
A. inactive

Q. Record request — test call for COCn1c(C(=O)OC)cc2oc(/C=C3/SC(=S)N(N)C3=O)cc21
A. inactive

Q. Record request — test call for O=C(Nc1cccc(Cn2c(=O)[nH]c3ccc(Oc4ncccn4)cc3c2=O)c1)c1cc(Cl)cc(Cl)c1
A. inactive

Q. Record request — test call for O=C(Nc1ccc(-n2cc(-c3ccncc3)c(-c3ccc(Cl)c(O)c3)n2)cc1)c1ccc(Cl)c(Cl)c1
A. inactive

Q. Record request — test call for CCN(CC)CCCNc1c2ccc(Cl)cc2nc2ccc(OC)cc12
A. active

Q. Record request — test call for CC(C)(C)C(=O)CCCCCCCC/C=C/CCCC(O)c1ccco1 (stereo unspecified)
A. inactive

Q. Record request — test call for Cc1ccc(OCCn2ccc(=O)n(CCOc3ccc(Cl)cc3C(=O)c3cc(C)cc(C)c3)c2=O)cc1
A. inactive

Q. Record request — test call for CCOC(=O)C1=C(C(F)(F)F)NC(=S)NC1CN1C(=O)c2ccccc2C1=O (stereo unspecified)
A. inactive

Q. Record request — test call for NC(N)=N/N=C/c1cccc(Br)c1
A. inactive

Q. Record request — test call for O=C1/C(=C\c2cn(-c3nc(N4CCOCC4)nc(N4CCOCC4)n3)c3ccccc23)c2ccccc2N1c1c(Cl)cccc1Cl
A. inactive

Q. Record request — test call for COc1ccccc1C(=O)Nc1cccc(-c2cc(=O)c3c(OC)c(OC)c(OC)cc3o2)c1
A. inactive

Q. Record request — test call for CCOC(=O)C1C(=O)C(=O)N(C(C)C)C1C(=O)OCC (stereo unspecified)
A. inactive

Q. Record request — test call for Cc1c(Cc2ccccc2)c(=O)oc2c(C)c(OCC(=O)n3nc(C#N)cc3N)ccc12
A. inactive

Q. Record request — test call for CC1=C(C)C[C@]2(C(=O)O[C@H]3CCCC[C@@H]32)[S@](=O)C1
A. inactive

Q. Record request — test call for COC(=O)/C=C/c1cc(O)c2oc(-c3ccc(O)c(O)c3)c(C(=O)OC)c2c1
A. inactive

Q. Record request — test call for O=C(/C=C\c1ccc(NCc2ccc(C(=O)O)cc2)cc1)CCl
A. inactive

Q. Record request — test call for Nc1ccc(N=Nc2ccccc2)c2cc(S(=O)(=O)O)ccc12
A. inactive

Q. Record request — test call for COC(=O)[C@@H]1[C@H](O)[C@H](C)[C@H](O)[C@H](C)/C=C\C=C(C)C(=O)Nc2c(C)c(OC(C)=O)c3c(c2O)C(=O)C(C)=C2OCOC(=C23)C(C)=C[C@@](C)(O)[C@H](O)[C@@H](C)[C@H]1OC(C)=O
A. inactive

Q. Record request — test call for N#Cc1ccc(OCc2nc(N)nc(N)c2-c2ccc(Cl)c(Cl)c2)cc1
A. inactive

Q. Record request — test call for O=C(O)c1ccc(-c2nn(-c3ccc(C(=O)O)cc3)cc2CNc2ccc(Br)cc2)cc1
A. inactive

Q. Record request — test call for CC1=C(C)C(=O)C(C(C)C2=C(C)C(=O)C(C)=C(C)C2=O)=C(C)C1=O
A. inactive

Q. Record request — test call for N/C(=N\O)c1ccncc1
A. inactive

Q. Record request — test call for COC(=O)[C@H](Cc1cn(C)cn1)NC(=O)[C@H](CC(=O)OCc1ccccc1)NC(=O)Nc1cc(C(F)(F)F)cc(C(F)(F)F)c1
A. active

Q. Record request — test call for N=C(c1ccccc1)N(Cc1ccccc1)Cc1ccccc1
A. inactive

Q. Record request — test call for Brc1ccc(-c2nc3ccccc3s2)cc1
A. inactive

Q. Record request — test call for CC(O)CN(CCO)CCN(CCO)CC(C)O (stereo unspecified)
A. inactive

Q. Record request — test call for Nc1ccc(S(=O)(=O)c2ccc(NO)cc2)cc1
A. inactive

Q. Record request — test call for O=C(Oc1ccccc1)c1ccccc1Cl
A. inactive

###

Test system: SF-295 CNS
ASSAY PROCEDURE: NCI-60 one-dose screen, 48 h (100 = growth as untreated, 0 = no growth, -100 = all killed)
MEASUREMENT SETUP: 10 µM unless noted
About 83,000 compounds went through this panel and 20% of them were active in at least one assay; those are over-represented in the sample as a whole.
PARAMETER: growth (%)
# output: bare number, implied unit %

Q. I have this compound here, CC(=O)Nc1nc(C)c(C(=O)NNC(=O)Nc2ccccc2)s1 , and I need its recorded growth.
A. 116

Q. I have this compound here, CCCNC(=O)Oc1ccc(/C(=C(/CC)Cc2ccccc2)c2ccc(OCCN(CC)CC)cc2)cc1 , and I need its recorded growth.
A. 97.8

Q. I have this compound here, CC(=O)C(CO)C(=O)Nc1ccccc1 (stereo not given) , and I need its recorded growth.
A. 107

Q. I have this compound here, CCCCCCC(C)N(CC(C)(C)O)C(=O)c1ccc([N+](=O)[O-])cc1 (stereo not given) , and I need its recorded growth.
A. 88.6

Q. I have this compound here, CC1C(=O)CCCC1=O , and I need its recorded growth.
A. 104

Q. I have this compound here, Nc1nc2cc(O)ccc2n2cc3c(F)cccc3c12 , and I need its recorded growth.
A. 11.9

Q. I have this compound here, COc1ccc2c(c1)cn1c3ccc(O)cc3[nH]c(=O)c21 , and I need its recorded growth.
A. 22.5

Q. I have this compound here, CCCCCCCCCCN1CC2CCCCC2C1 (stereo not given) , and I need its recorded growth.
A. 85.1

Q. I have this compound here, COc1ccc(-c2nc(SCC(C)C)nc(Nc3ccc(C)cc3)c2C#N)cc1 , and I need its recorded growth.
A. 64.4

Q. I have this compound here, C=CCN(C)C , and I need its recorded growth.
A. 103

###

Test system: HCC-2998 colon
ASSAY PROCEDURE: NCI-60 one-dose screen, 48 h
MEASUREMENT SETUP: 10 µM unless noted
This is part of a sample that, as a whole, favours compounds with a hit. Of some 83,000 tested, about 20% had one in any assay. The source made the active and inactive calls. How the source made its calls: active means growth percent below 10; inactive means the rest.
Answer with one of the outcomes given here: 1 (yes) for active, 0 (no) for inactive

Q. Record request — test call for COc1cc(-c2nn(-c3ccc(NC(=O)c4ccc(Cl)c(Cl)c4)cc3)cc2-c2ccncc2)ccc1Cl
A. 0 (no)

Q. Record request — test call for CC(=O)CCS(=O)c1ccccc1 (centres undefined)
A. 0 (no)

Q. Record request — test call for CCCCCCCCCc1cc[n+](CC(=O)c2ccc([N+](=O)[O-])cc2)cc1
A. 1 (yes)

Q. Record request — test call for CC(=O)Nc1ccc(S(=O)(=O)Cl)cc1
A. 0 (no)

Q. Record request — test call for Cc1cc2c(-c3nc4ccccc4n3C)c(O)c(O)cc2c(O)c1-c1c(C)cc2c(-c3nc4ccccc4n3C)c(O)c(O)cc2c1O
A. 0 (no)

Q. Record request — test call for Cc1ncc(C(=O)Nc2ccc(CN3CCN(C)CC3)c(C(F)(F)F)c2)cc1C#Cc1cnc(NC2CC2)c2ncccc12
A. 1 (yes)

Q. Record request — test call for CCCCCCNC(=O)Oc1ccc(/C(=C(/C)Cc2ccc(OC)cc2)c2ccc(OCCN3CCCCC3)cc2)cc1
A. 0 (no)

Q. Record request — test call for Nc1nc2c(c3cnccc13)C(c1cccc(Br)c1)Cc1cnccc1-2 (centres undefined)
A. 0 (no)

Q. Record request — test call for C=CCSc1nnc(COc2ccc3c(C)c(Cc4ccccc4)c(=O)oc3c2C)o1
A. 0 (no)
